Parameter: cAMP EMax(obs.). Scope: all listed entries.
MEASURED ON: T1, wild-type human PTH/PTHrP receptor (hP1R-WT) (human, UniProt Q03431 27-593)
T1 sequence (looked up): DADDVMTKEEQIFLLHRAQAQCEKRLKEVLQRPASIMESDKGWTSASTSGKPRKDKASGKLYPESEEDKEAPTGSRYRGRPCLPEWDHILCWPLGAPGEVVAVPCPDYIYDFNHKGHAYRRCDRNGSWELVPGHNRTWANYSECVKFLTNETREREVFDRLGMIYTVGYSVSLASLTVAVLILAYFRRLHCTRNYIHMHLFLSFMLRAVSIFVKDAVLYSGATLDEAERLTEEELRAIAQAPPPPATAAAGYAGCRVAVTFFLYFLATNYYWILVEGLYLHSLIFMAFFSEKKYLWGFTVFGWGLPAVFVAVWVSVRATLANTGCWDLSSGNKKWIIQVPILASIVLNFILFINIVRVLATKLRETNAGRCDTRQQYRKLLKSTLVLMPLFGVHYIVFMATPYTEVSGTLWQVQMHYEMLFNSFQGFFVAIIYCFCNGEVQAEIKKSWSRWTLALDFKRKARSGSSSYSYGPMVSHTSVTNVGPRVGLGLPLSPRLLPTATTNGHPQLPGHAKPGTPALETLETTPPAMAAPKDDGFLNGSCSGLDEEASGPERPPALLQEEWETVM
PROCEDURE TEXT: cell-based or functional assay
Square brackets hold non-standard residues; d marks the D form. Ends that are not written are not given here. hArg = N=C(N)NCCCC[C@H](N)C(=O)O; Aib = CC(C)(N)C(=O)O
Only the number, expressed in pmole/well, is required.

Consider the worked cases shown below.
| BINDER | cAMP EMax(obs.) / pmole/well |
| --- | --- |
| AVAEIQLMHQ[hArg]A[Aib]W-NH2 (N-terminus assumed; SMILES CC[C@H](C)[C@H](NC(=O)[C@H](CCC(=O)O)NC(=O)[C@H](C)NC(=O)[C@@H](NC(=O)[C@H](C)N)C(C)C)C(=O)N[C@@H](CCC(N)=O)C(=O)N[C@@H](CC(C)C)C(=O)N[C@@H](CCSC)C(=O)N[C@@H](Cc1c[nH]cn1)C(=O)N[C@@H](CCC(N)=O)C(=O)N[C@@H](CCCCNC(=N)N)C(=O)N[C@@H](C)C(=O)NC(C)(C)C(=O)N[C@@H](Cc1c[nH]c2ccccc12)C(N)=O, Aib scan of [M]PTH(1-14); also called 634 Aib-13) [[Aib^13,M]PTH(1-14)] | 259 |
| A[Aib]AEIQLMHQ[hArg]AKW-NH2 (N-terminus assumed; SMILES CC[C@H](C)[C@H](NC(=O)[C@H](CCC(=O)O)NC(=O)[C@H](C)NC(=O)C(C)(C)NC(=O)[C@H](C)N)C(=O)N[C@@H](CCC(N)=O)C(=O)N[C@@H](CC(C)C)C(=O)N[C@@H](CCSC)C(=O)N[C@@H](Cc1c[nH]cn1)C(=O)N[C@@H](CCC(N)=O)C(=O)N[C@@H](CCCCNC(=N)N)C(=O)N[C@@H](C)C(=O)N[C@@H](CCCCN)C(=O)N[C@@H](Cc1c[nH]c2ccccc12)C(N)=O, Aib scan of [M]PTH(1-14); also called 623 Aib-2) [[Aib^2,M]PTH(1-14)] | 168 |
| AV[Aib]EIQLMHQ[hArg]AKW-NH2 (N-terminus assumed; SMILES CC[C@H](C)[C@H](NC(=O)[C@H](CCC(=O)O)NC(=O)C(C)(C)NC(=O)[C@@H](NC(=O)[C@H](C)N)C(C)C)C(=O)N[C@@H](CCC(N)=O)C(=O)N[C@@H](CC(C)C)C(=O)N[C@@H](CCSC)C(=O)N[C@@H](Cc1c[nH]cn1)C(=O)N[C@@H](CCC(N)=O)C(=O)N[C@@H](CCCCNC(=N)N)C(=O)N[C@@H](C)C(=O)N[C@@H](CCCCN)C(=O)N[C@@H](Cc1c[nH]c2ccccc12)C(N)=O, also called 624 Aib-3) [[Aib^3,M]PTH(1-14)] | 269 |

Moving on to the next binder.
## Task Given the binder [Aib]V[Aib]EIQLMHQ[hArg]AKW-NH2 (N-terminus assumed; SMILES CC[C@H](C)[C@H](NC(=O)[C@H](CCC(=O)O)NC(=O)C(C)(C)NC(=O)[C@@H](NC(=O)C(C)(C)N)C(C)C)C(=O)N[C@@H](CCC(N)=O)C(=O)N[C@@H](CC(C)C)C(=O)N[C@@H](CCSC)C(=O)N[C@@H](Cc1c[nH]cn1)C(=O)N[C@@H](CCC(N)=O)C(=O)N[C@@H](CCCCNC(=N)N)C(=O)N[C@@H](C)C(=O)N[C@@H](CCCCN)C(=O)N[C@@H](Cc1c[nH]c2ccccc12)C(N)=O, also called 671 [Aib^1,3, M]PTH (1-14); 671 [Aib^1,3M]PTH(1-14)) [[Aib^1,3,M]PTH(1-14)] , write its reported cAMP EMax(obs.).
## Result 278
